Assay: NCI Yeast Anticancer Drug Screen. Data for the cln2 rad14 strain (AID 165)
Conditions: S. cerevisiae cln2 rad14 strain, at 50.0 µM
The panel holds about 79,000 compounds, 15% with a hit somewhere; the sample as a whole holds those more often. Calls of active or inactive are those of the source. Cut-off read from the data, not from the text of the source: active = growth inhibition above about 70%; inactive = the rest.
Labels: Y for active, N for inactive

| compound | group |
| --- | --- |
| Cc1c(CCl)c(=O)oc2c(C)c3occ(CCl)c(=O)c3cc12 | Y |
| C/C(=N/Nc1ccccc1)C(=O)O | Y |
| COC(=O)c1cc(OC)c(OC)c(OC)c1 | N |
| O=S(=O)(O)c1cc(N=Nc2ccc(O)c(O)c2)ccc1/C=C/c1ccc(N=Nc2ccc(O)c(O)c2)cc1S(=O)(=O)O | N |
| Cc1cc(N2C(=O)CSC2=S)ccc1Cl | N |
| COc1cccc(C2c3cc4c(cc3OC(Nc3ccccc3)C2C)OCO4)c1O (configuration not stated) | Y |
| CC(C(O)c1ccccc1)C(O)(C(F)(F)F)C(F)(F)F (configuration not stated) | N |
| Cc1ccc(/C=C2\CCCc3ccccc3C2=O)cc1 | N |
| CCOC(=O)C(=O)Nc1ccc(Cl)cc1Cl | N |
| CCN(CC)CCCC(Nc1c2ccc(Cl)cc2nc2ccc(OC)cc12)c1cccs1 (configuration not stated) | Y |
| O=[N+]([O-])c1ccc(Cc2nc3ccccc3s2)cc1 | N |
| CCOC(=O)/C=C/c1ccc([N+](=O)[O-])o1 | N |
